Origin of measurements: PubChem BioAssay

- System: Chordin-like protein 2 (CHRDL2)
- run description: compounds binding chordin-like 2 – biochemical, small-molecule microarray, 635 nm fluorescence, primary screen (AID 1126);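 note: printed compound slides probed with Chrdl2 protein at 4 µg/mL for 1 h at 4 C; score merges 667 nm emission intensity with signal to noise over three replicate slides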
- condition notes: fluorescence 635 nm, higher = more signal
Entries annotated with measured composite z-score

molecule | composite z-score
CCOc1cc(C(O)C2C=CC3C(=O)N(c4ccccc4)C(=O)C3N2Nc2ccc(C(C)C)cc2)ccc1O (stereo not drawn) | 0.161
O=C(NCCN1CCOCC1)[C@@H]1c2ccccc2C(=O)N(Cc2cc(C(F)(F)F)cc(C(F)(F)F)c2)[C@H]1c1ccc(CO)cc1 | -1.67
Cc1c(NC(=O)/C(C#N)=C/c2cccc([N+](=O)[O-])c2)c(=O)n(-c2ccccc2)n1C | 0.393

---

Entries annotated with measured composite z-score
- study target: Concanavalin-A (Canavalia ensiformis) (UniProt P02866)
- Sequence (P02866 whole entry, looked up): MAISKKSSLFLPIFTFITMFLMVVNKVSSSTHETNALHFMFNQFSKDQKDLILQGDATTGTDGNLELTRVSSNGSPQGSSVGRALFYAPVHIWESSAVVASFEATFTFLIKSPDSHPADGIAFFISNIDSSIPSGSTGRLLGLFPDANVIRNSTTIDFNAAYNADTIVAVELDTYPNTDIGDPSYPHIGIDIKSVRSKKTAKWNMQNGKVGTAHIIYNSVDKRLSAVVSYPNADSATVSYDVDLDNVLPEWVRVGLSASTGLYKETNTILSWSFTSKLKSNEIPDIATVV
- run description: compounds binding concanavalin A lectin – biochemical, small-molecule microarray, Alexa647 label, 635 nm, artefact control for SMM control protein annotation, primary screen (AID 1127);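 note: z combines 667 nm emission intensity with signal-to-noise across three replicate slides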
- condition notes: ConA-A647 binding fluorescence, higher = more signal
reported property: composite z-score

compound | test result
CCCCN1CC=CC23O[C@@H]4/C=C\CCCOC(=O)C4[C@H]2C(=O)N(CCCO)[C@@H]3C1=O (stereo partly specified) | -1.4
C=CC[C@@]1(C(=O)N2CCCCC2)N=C(c2ccc(OCCCO)cc2)O[C@@H]1c1ccccc1CN=[N+]=[N-] | 1.04
C=C(C(=O)CC[C@H](OC(C)=O)c1ccccc1OCCO)C(C)C | -0.104
CCCCCN1CC=CC23O[C@@H]4C=CCOC(=O)[C@@H]4[C@H]2C(=O)N(C(C)CO)[C@@H]3C1=O (stereo partly specified) | -0.54
[N-]=[N+]=Nc1ccccc1C[C@]1(C(=O)N2CCCCC2)COC(c2ccc(OCCCO)cc2)=N1 | 0.345
C=C(CCCC)C(=O)CC[C@H](OC(=O)c1cccnc1)c1ccc(OCCO)cc1 | -0.421
NCCCCCNC(=O)[C@H]1C[C@H]2C(=O)N[C@@H](Cc3ccccc3)C(=O)N2[C@H]1c1cccc(OCCO)c1 | 0.883
COC(=O)[C@@]1(Cc2ccccc2)[C@H]2c3cc(C(=O)N(C)C)n(Cc4ccc(OC)c(OC)c4)c3C[C@H]2CN1C(=O)c1ccccc1 | 0.829
CN(C)CCCCCCNC(=O)[C@@H]1C[C@@H]2C(=O)N3CCC[C@H]3C(=O)N2[C@@H]1c1ccc(O)cc1 | 1.16
CCCCCCc1nc(-c2ccc(-c3ccc(Cl)c(Cl)c3)o2)c(C)c2c1[Si](C(C)C)(C(C)C)OC2 | 0.999
CCCC(=O)N(CCc1c[nH]c2ccccc12)[C@@H]1CC(C(=O)NCCO)=C[C@H](Oc2c(I)cc(CO)cc2OC)[C@H]1O | 0.314

---

Entries annotated with measured z-score
- run description: S. pombe growth modifiers, basal conditions – strain 972, OD600, 24 h, no modulator, primary screen (AID 1090);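 note: basal condition with compound alone and no growth modifier present; test concentration not given here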
- condition notes: S. pombe 972 growth, higher = more signal, called active from +8 up or from −8 down
Activity calls are given as the source filed them.
reported property: z-score

molecule | reported property | test result
O=C1NC(=O)C2C1C=CC(C(O)C1CC=CCC1)N2Nc1ccccn1 (stereo unspecified) | z-score | 0.869 (inactive)
C=C(CCCC)/C(=C/C[C@H](OC(=O)c1ccncc1)c1ccc(OCCO)cc1)c1cc(C(=O)OC)ccc1OC | z-score | -0.78 (inactive)
O=C(NCc1ccccc1)[C@@H]1c2ccccc2C(=O)N(C2Cc3ccccc3C2)[C@H]1c1ccc(CO)cc1 | z-score | 0.287 (inactive)
COc1ccc(-c2cc3c(c(Cc4ccccc4)n2)[Si](C(C)C)(C(C)C)OC3)cn1 | z-score | -0.27 (inactive)
COc1ccc(C(O)C2C=CC3C(=O)N(C)C(=O)C3N2N(c2ccccc2)c2ccccc2)c2ccccc12 (stereo unspecified) | z-score | 0.954 (inactive)
COC(=O)[C@@]1(Cc2ccccc2)[C@H]2c3cc(C(=O)N4CCCC4)n(Cc4ccc(O)c(OC)c4)c3C[C@H]2CN1C(=O)c1ccccc1 | z-score | 0.943 (inactive)
COc1cc(OC)c(C(O)C2C=CC3C(=O)NC(=O)C3N2Nc2ccccn2)cc1Br (stereo unspecified) | z-score | -0.289 (inactive)
O=C1N(CCS(=O)(=O)c2ccccc2)c2ccccc2[C@@H]2OC(c3ccc(OCCCO)cc3)=N[C@]12Cc1ccccc1 | z-score | -2.2 (inactive)
CC(=O)NCCCC[C@@H]1NC(=O)[C@H]2C[C@@H](C(=O)NCCCCCNC(=O)CS)[C@@H](c3ccc(O)cc3)N2C1=O | z-score | 0.0772 (inactive)
COC(=O)C(CC#Cc1ccc2c(c1)[C@]1(C(=O)N2)[C@H](c2ccc(O)cc2)N2[C@H](c3ccccc3)[C@H](c3ccccc3)OC(=O)[C@H]2[C@@H]1C(=O)N1CCN(c2ncccn2)CC1)C(=O)OC | z-score | 0.516 (inactive)
CO[C@H]1O[C@H](CO)[C@@H](OC(=O)Nc2ccc(Br)cc2)[C@@H]2OC(=O)[C@H](Cc3cccc(Br)c3)C/C=C/C[C@@H](Cc3cccc(Br)c3)C(=O)O[C@@H]12 | z-score | -2.81 (inactive)

---

- run description: plasmodial surface anion channel blockers, osmotic lysis – cell-based, P. falciparum Indochina, OD700, 2 h, primary screen (AID 1155);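 note: lysis reports solute entry through the parasite surface anion channel PSAC; channel blockers reduce lysis of infected cells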
- condition notes: P. falciparum Indochina infected erythrocytes, higher = more signal, called active from +8 up or from −8 down

compound | z-score
CCOC(=O)C[C@H]1[C@H](OC(=O)c2ccc(-c3ccccc3)cc2)[C@@H](NC(=O)c2ccccc2)c2cc(OCCCO)ccc2N1C(=O)c1ccc2ccccc2n1 | -0.0981
O=C1C2C=CC(C(O)c3ccc(-c4ccccc4)s3)N(Nc3ccccc3)C2C(=O)N1c1ccccc1 (stereo not drawn) | 2.11
O=C1OCCC=C[C@H]2OC34C=CCN(Cn5nnc6ccccc65)C(=O)[C@H]3N(CCO)C(=O)[C@@H]4C12 (stereo partly drawn) | 0.793

---

- run description: probe aLefty2 binding to arrayed compounds – biochemical, biotinylated probe, 635/667 nm fluorescence, primary screen (AID 1094);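 note: score merges spot fluorescence near 667 nm with spot signal-to-noise ratio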
- condition notes: small-molecule microarray, higher = more signal
Entries annotated with measured composite z-score

compound | composite z-score
COc1cc(OC)c(C(O)C2C=CC3C(=O)NC(=O)C3N2Nc2ccccn2)cc1Br (stereo unspecified) | 0.0917
CC(C)C(=C=CC[C@H](O)c1ccc(CO)o1)CCO | -0.28
[N-]=[N+]=NCc1ccccc1[C@H]1OC(c2ccc(OCCCO)cc2)=N[C@@]1(Cc1ccccc1)C(=O)N1CCCCC1 | 0.0004
COc1ccccc1CN1C(=O)c2ccccc2[C@@]2(Cc3ccccc3N(CCCN(C)C)C2=O)[C@@H]1c1ccc(CO)cc1 | -0.247
Cc1ccc(C2C3C(=O)CC4C(=O)N(c5ccccc5)C(=O)C4C3CN2S(=O)(=O)c2ccc(C)cc2)cc1 (stereo unspecified) | 0.571
C#CCOc1ccc(C[C@@H](C(=O)OC)N(CC#C)[C@@H](/C=C/C2CC2)[C@H](O)Cc2ccccc2)cc1 | -0.0561
CO[C@H]1O[C@H](CO)[C@@H](OC(=O)Nc2ccc(Oc3ccccc3)cc2)[C@H](OC(=O)Nc2ccc3c(c2)OCO3)[C@@H]1OC(=O)Nc1ccc2c(c1)OCO2 | 0.237
CS(=O)(=O)CCOC(=O)C1=CC(CCCO)=CC(C2CC2)N(Cc2cc3c(cc2Br)OCO3)C=C1C(=O)OCCS(C)(=O)=O (stereo unspecified) | 0.0723
NCCCCCNC(=O)[C@H]1C[C@H]2C(=O)N[C@@H](Cc3ccccc3)C(=O)N2[C@H]1c1cccc(OCCO)c1 | 0.662
CCCCN1CC=CC23O[C@@H]4/C=C\CCCOC(=O)C4[C@H]2C(=O)N(CCCO)[C@@H]3C1=O (stereo partly specified) | -0.212
C=CC[C@]1(C(=O)N2CCOCC2)N=C(c2ccc(OCCCO)cc2)O[C@H]1c1ccccc1N=[N+]=[N-] | 0.405
CCOC(=O)C[C@H]1[C@H](OC(=O)c2ccc(C(=O)c3ccccc3)cc2)[C@@H](NC(=O)Cc2ccc(OC)cc2)c2cc(OCCCO)ccc2N1C(=O)c1ccc2ccccc2n1 | 0.0768
CN1C(=O)C2C=CC(C(O)c3ccc(F)cc3)N(N(c3ccccc3)c3ccccc3)C2C1=O (stereo unspecified) | 0.0606
CC(C)NC(=O)[C@@]1(Cc2ccccc2I)c2ccccc2C(=O)N(Cc2ccccc2Cl)[C@H]1c1ccc(CO)cc1 | -0.0441
CO[C@H]1O[C@H](CO)[C@@H](OC(=O)Nc2ccccc2)[C@@H]2OC(=O)[C@@H](Cc3ccc4ccccc4c3)C/C=C/C[C@H](Cc3ccc4ccccc4c3)C(=O)O[C@@H]12 | -0.0403
COCC(=C=CC[C@H](O)c1cccc(OCCO)c1)C[C@H](O)c1cc(Cl)cc(Cl)c1O | -0.143
COc1ccc([Si](C)(C)[C@H]2[C@H](CC(=O)N3CCC[C@H]3CO)O[C@@]3(C(=O)N(Cc4cccc(N5CCOC5=O)c4)c4ccccc43)[C@@H]2C)cc1 | -0.23
CC(=O)NCCCC[C@@H]1NC(=O)[C@H]2C[C@@H](C(=O)NCCCCCNC(=O)CS)[C@@H](c3ccc(O)cc3)N2C1=O | -0.0727
OCCCC1=CC(C2CC2)N(Cc2cccc(OC(F)(F)F)c2)CC1 (stereo unspecified) | -0.264
CCCC1(C(=O)OC)C=C2C(=C(c3ccccc3)C(=O)C2C)CN1 (stereo unspecified) | 0.248
Cc1ccc([C@H]2C(C(=O)O)=CCN2S(=O)(=O)c2ccc(C)cc2)cc1 | 0.228
CCN(CC)c1ccc(N2CC=CC34O[C@@H]5/C=C\CCC(C)OC(=O)C5[C@H]3C(=O)N(CCCCCO)[C@@H]4C2=O)cc1 (stereo partly specified) | -0.283
COC(=O)c1c2oc(c1C(=O)OC)C(=O)NC1(CCCCC1)c1cn(nn1)C[C@H](Cc1ccccc1)NC(=O)N[C@H](CO)CC2 | -0.186
COc1ccc(C(=O)Nc2cccc(CN3C(=O)[C@]4(O[C@H](CCn5cc(CCO)nn5)[C@@H]([Si](C)(C)c5ccc(OC)cc5)[C@@H]4C)c4ccccc43)c2)cc1 | 0.143
O=C(O)[C@H]1C[C@H]2C(=O)N3CCC[C@H]3C(=O)N2[C@H]1c1ccc(O)cc1 | 0.0212
COCCOC(=O)N1C(=O)[C@@]2(c3cc(C#CCCO)ccc31)[C@H](c1ccc(OCCO)cc1)N1[C@H](c3ccccc3)[C@H](c3ccccc3)OC(=O)[C@H]1[C@@H]2C(N)=O | -0.0383
